Item-by-item account of GI50
# Test system: NCI-H226
# run_description: NCI tumour cell line growth inhibition, 48 h
Active and inactive are the calls of the source. No stated cut-off is given here; in the data, active = GI50 up to about 1.1 µM and inactive = higher.
measured_endpoint: GI50

molecule: CN/N=C(/CCN1CCCC1)CC(c1ccccc1)c1c(O)c2ccccc2oc1=O (stereo unspecified)
measured_endpoint: GI50
result: > 65.6 µM (inactive)

molecule: COc1c(NC(C)=O)c2ccccc2c2ccccc12
measured_endpoint: GI50
result: 49.5 µM (inactive)

molecule: COc1ccc(NC(=O)CC(=O)N2N=C(N(CCC#N)c3cccc(C)c3)CC2c2ccccc2)cc1 (stereo unspecified)
measured_endpoint: GI50
result: > 100 µM (inactive)

molecule: C#CCOC(=O)c1ccccc1O
measured_endpoint: GI50
result: > 100 µM (inactive)

molecule: COC(=O)C1(NC(=O)C(CC(=O)OCc2ccccc2)NC(=O)OCc2ccccc2)CCCCCC1 (stereo unspecified)
measured_endpoint: GI50
result: 29.4 µM (inactive)

molecule: CCOP(=O)(OCC)C(C)(C)OC(=O)NC#N
measured_endpoint: GI50
result: > 100 µM (inactive)

----------
# System: SF-268
# run_description: NCI tumour cell line growth inhibition, 48 h
Calls of active or inactive are those of the source. No stated cut-off is given here; in the data, active = GI50 up to about 1.1 µM and inactive = higher.
Item-by-item account of GI50

compound: COC12CCCN1c1ccn(Cc3ccccc3)c(=O)c1C2=O (configuration not stated)
GI50: > 100 µM (inactive)

compound: O=C(c1ccco1)N(C(=S)N1CCN(c2ccccn2)CC1)C1CCCCC1
GI50: > 100 µM (inactive)

compound: CN1CCN(Cc2ccccc2)CC1CC#N (configuration not stated)
GI50: > 100 µM (inactive)

compound: N#CCN1CCCCCc2ccccc21
GI50: > 100 µM (inactive)

compound: O=C1CCSC2=C1SCc1sccc12
GI50: > 100 µM (inactive)

compound: CCOC(=O)CC(=O)C(=O)NN=C1NCCCN1
GI50: > 100 µM (inactive)

compound: CCOC1C(Br)Cn2c(=O)c3cc4ccccc4cc3c(=O)n2C1C (configuration not stated)
GI50: > 100 µM (inactive)

compound: Cc1cc(C)c2c(O)cc(-c3cccc4ccccc34)nc2n1
GI50: 2.58 µM (inactive)

compound: CN(N=O)C(=O)ON1C(=O)CCC1=O
GI50: > 100 µM (inactive)

compound: O=S(=O)(/C=C/CS(=O)(=O)c1ccccc1)c1ccccc1
GI50: 26.9 µM (inactive)

compound: CC1=C(/C(C)=N/NC(=O)c2ccccc2O)C(C)C(/C(C)=N/NC(=O)c2ccccc2O)=C(C)N1
GI50: 25.6 µM (inactive)

compound: Cn1c(S)nnc1CNc1ccc(-c2nnc(S)n2C)cc1
GI50: > 100 µM (inactive)

----------
# Tested on: T47D
# run_description: NCI tumour cell line growth inhibition, 48 h
Calls of active or inactive are those of the source. No stated cut-off is given here; in the data, active = GI50 up to about 1.1 µM and inactive = higher.
Item-by-item account of GI50

compound: CC1(C)OC2C(COC(c3ccccc3)(c3ccccc3)c3ccccc3)OC(c3c[nH]c4c(N)ncnc34)C2O1 (stereo not given)
GI50: 3.92 µM (inactive)
--
compound: CCCCNC(=S)c1ccc(OC(=O)Nc2ccc(Cl)cc2)cc1
GI50: 58.6 µM (inactive)
--
compound: O=c1c2c3c(sc2nc2n1N=CN(c1ccc(F)cc1)C2)CCCC3
GI50: > 100 µM (inactive)
--
compound: Clc1cccc(Cl)c1C(Nc1nncs1)Nc1nncs1
GI50: 56.8 µM (inactive)
--
compound: C[Si](C)(c1ccc(C(=O)O)cc1)c1ccc(C(=O)O)cc1
GI50: > 100 µM (inactive)
